- Measurement Target: interaction between HIF-1α and p300 (His-HIF-1α / GST-p300) (Homo sapiens, UniProt Q09472+Q16665)
- Construct: corresponding to the C-terminal 390 amino acids into vector pET28a; A plasmid containing the N-terminal 595 amino acids of human p300; made in house; host or cells: E. coli
- Sequence (Q16665 437-826 limits assumed): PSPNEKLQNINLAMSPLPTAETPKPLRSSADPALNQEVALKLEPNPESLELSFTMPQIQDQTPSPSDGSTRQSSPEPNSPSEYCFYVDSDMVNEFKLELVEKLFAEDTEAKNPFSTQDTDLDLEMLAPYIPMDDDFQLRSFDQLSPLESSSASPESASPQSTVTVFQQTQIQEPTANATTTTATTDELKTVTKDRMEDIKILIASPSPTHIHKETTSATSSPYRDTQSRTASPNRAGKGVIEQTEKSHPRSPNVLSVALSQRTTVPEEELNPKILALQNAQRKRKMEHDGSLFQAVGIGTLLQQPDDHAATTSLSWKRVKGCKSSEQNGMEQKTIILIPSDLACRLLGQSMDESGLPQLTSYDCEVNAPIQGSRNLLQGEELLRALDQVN
- Sequence (Q09472 1-595 limits assumed): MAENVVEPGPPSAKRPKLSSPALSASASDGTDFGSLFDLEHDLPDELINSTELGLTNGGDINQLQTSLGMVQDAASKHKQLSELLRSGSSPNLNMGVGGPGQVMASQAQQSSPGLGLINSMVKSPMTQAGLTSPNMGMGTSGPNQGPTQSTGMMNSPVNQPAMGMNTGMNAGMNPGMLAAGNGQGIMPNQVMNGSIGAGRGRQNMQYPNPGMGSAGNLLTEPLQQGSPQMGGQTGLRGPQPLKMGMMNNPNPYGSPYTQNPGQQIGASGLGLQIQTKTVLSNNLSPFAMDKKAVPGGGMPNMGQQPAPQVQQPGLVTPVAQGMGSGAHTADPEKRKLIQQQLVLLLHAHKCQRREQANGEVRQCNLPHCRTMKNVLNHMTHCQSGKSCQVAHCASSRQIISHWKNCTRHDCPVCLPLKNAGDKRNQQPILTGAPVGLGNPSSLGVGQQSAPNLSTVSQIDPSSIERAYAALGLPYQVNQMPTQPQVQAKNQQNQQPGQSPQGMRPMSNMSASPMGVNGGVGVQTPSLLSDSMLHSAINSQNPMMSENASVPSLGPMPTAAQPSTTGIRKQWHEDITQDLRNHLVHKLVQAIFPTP
- Assay Procedure: Primary assay: fluorescence-based (DELFIA) screening assay for inhibition of the HIF-1α/p300 interaction
- Type: binding
Form field: IC50 (one value per entry).
Don't forget the unit after the number, please.

These solved cases illustrate the format of a correct answer.
>  <Structure String>
COc1ccc2cccc(/C=C3/C(=O)NC(=S)N(c4ccc(Br)cc4)C3=O)c2c1

>  <Recorded Measurement>
50 µM

$$$$
>  <Structure String>
COc1cc(C=C2C(=O)NC(=O)NC2=O)c([N+](=O)[O-])cc1OCc1ccccc1

>  <Recorded Measurement>
200 µM

$$$$
>  <Structure String>
O=C1NC(=O)C(=Cc2ccc3c(c2)OCO3)C(=O)N1

>  <Recorded Measurement>
100 µM

$$$$
>  <Structure String>
O=C1NC(=S)NC(=O)C1=Cc1ccc(Cl)cc1

>  <Recorded Measurement>
100 µM

$$$$

Look up IC50 for this compound: `CN(C)c1ccc(C=C2C(=O)NC(=S)NC2=O)cc1`
25 µM

The reported numbers originate from patent US20030229108A1.
